B1: peptide HD2 (from tick evasin EVA4) / CCL17 (biotinylated, synthetic) (parent)
chain 1: EEDDYTAYAPLTCYFT
chain 2: ARGTNVGRECCLEYFKGAIPLRKLKTWYQTSEDCSRDAIVFVTVQGRAICSDPNNKRVKNAVKYLQSLERS

variants of: B1; conditions: with CCL17 (biotinylated, synthetic); scale: log2
Quick reference: enrichment of the listed items.
Just the number.

chain 1 EEDDYTAYARLTCYFT [chain 1 P10R]
-9.18
chain 1 EEDDYTAYAILTCYFT [chain 1 P10I]
-8.54

Please fill in: enrichment reported for chain 1 EEDDYTAYIPLTCYFT [chain 1 A9I] = -10.1

Please fill in: enrichment reported for chain 1 EEDDYTAMAPLTCYFT [chain 1 Y8M] = -8.59

Please fill in: enrichment reported for chain 1 EEDCYTAYAPLTCYFT [chain 1 D4C] = -9.34

Please fill in: enrichment reported for chain 1 EEDDQTAYAPLTCYFT [chain 1 Y5Q] = -5.46

Please fill in: enrichment reported for chain 1 EEDDYTAYAPLTCRFT [chain 1 Y14R] = -10.2

Please fill in: enrichment reported for chain 1 EEDDYTAPAPLTCYFT [chain 1 Y8P] = -7.97

Please fill in: enrichment reported for chain 1 EEDDYTAGAPLTCYFT [chain 1 Y8G] = -8.81

Reference source for all entries: paper PMC11969024
